Target: Estrogen Receptor (ERα) in MCF-7 human ductal carcinoma breast cell line (Homo sapiens, UniProt P03372)
Construct: endogenous in cells; host or cells: MCF-7
Test: MCF-7 ER degradation assay (cell based immuno-fluorescence)
Details: MCF-7 cells, 18-22 hours incubation, 50% reduction of ERα expression; single experiment or average of two or more; read-out: MCF-7 ER degradation IC50
value-kind: DC50

Q: Bench note: what DC50 did Cc1ncsc1-c1ccc(CNC(=O)[C@@H]2C[C@@H](O)CN2C(=O)[C@@H](NC(=O)CCCCCCCOCCOc2cc(F)c([C@@H]3c4[nH]c5ccccc5c4C[C@@H](C)N3CC(C)(C)F)c(F)c2)C(C)(C)C)cc1 [Example 111] show?
Ans: 0.8 nM

###

Molecular target: Estrogen Receptor (ERα) in MCF-7 human ductal carcinoma breast cell line (Homo sapiens)
Construct: endogenous in cells; host or cells: MCF-7
Experiment: MCF-7 ER degradation assay (cell based immuno-fluorescence)
Settings: MCF-7 cells, 0.3 μM; ER degradation by fulvestrant at 0.3 μM is defined as 100%
value-kind: ER degradation ≥ 90% at 0.3 μM

1) Cc1ncsc1-c1ccc(CNC(=O)[C@@H]2C[C@@H](O)CN2C(=O)[C@@H](NC(=O)CCCCCCNC(=O)/C=C/c2cc(F)c([C@@H]3c4[nH]c5ccccc5c4C[C@@H](C)N3CC(C)(C)F)c(F)c2)C(C)(C)C)cc1 ... ••
2) Cc1ncsc1-c1ccc(CNC(=O)[C@@H]2C[C@@H](O)CN2C(=O)[C@@H](NC(=O)c2ccc(N3CCN(CCNC(=O)/C=C/c4cc(F)c([C@@H]5c6[nH]c7ccccc7c6C[C@@H](C)N5CC(C)(C)F)c(F)c4)CC3)cc2)C(C)(C)C)cc1 ... •
3) Cc1ncsc1-c1ccc(CNC(=O)[C@@H]2C[C@@H](O)CN2C(=O)[C@@H](NC(=O)CCCCCCCCOc2cc(F)c([C@@H]3c4[nH]c5ccccc5c4C[C@@H](C)N3CC(C)(C)F)c(F)c2)C(C)(C)C)cc1 ... •
4) Cc1ncsc1-c1ccc(CNC(=O)[C@@H]2C[C@@H](O)CN2C(=O)[C@@H](NC(=O)COCCOCCOCCOCC(=O)Nc2cc(F)c([C@@H]3c4[nH]c5ccccc5c4C[C@@H](C)N3CC(C)(C)F)c(F)c2)C(C)(C)C)cc1 ... ••
5) Cc1ncsc1-c1ccc(CNC(=O)[C@@H]2C[C@@H](O)CN2C(=O)[C@@H](NC(=O)COCCOCCCCCOc2cc(F)c([C@@H]3c4[nH]c5ccccc5c4C[C@@H](C)N3CC(F)(F)F)c(F)c2)C(C)(C)C)cc1 ... ••
6) Cc1ncsc1-c1ccc(CNC(=O)[C@@H]2C[C@@H](O)CN2C(=O)[C@@H](NC(=O)COCCC(F)(F)CCOc2cc(F)c([C@@H]3c4[nH]c5ccccc5c4C[C@@H](C)N3CC(C)(C)F)c(F)c2)C(C)(C)C)cc1 ... •

Q: Please give the measured ER degradation ≥ 90% at 0.3 μM for this compound: Cc1ncsc1-c1ccc(CNC(=O)[C@@H]2C[C@@H](O)CN2C(=O)[C@@H](NC(=O)COCCCCCOc2cc(F)c([C@@H]3c4[nH]c5ccccc5c4C[C@@H](C)N3CC3(F)CC3)c(F)c2)C(C)(C)C)cc1
Ans: •

###

Let's look at some compounds and their measured pIC50.
Biological target: recombinant human Estrogen Receptor alpha ligand binding domain, residues 307-554 (ER alpha-LBD (GST)) (Homo sapiens, UniProt P03372)
Test: ERα binding assay (LanthaScreen TR-FRET competition)
Settings: TR-FRET competition with Fluormone ES2 tracer, 4 hours at room temperature; single experiment or average of two or more
Scale note: pIC50 = -log10(concentration in M).

1) Cc1ncsc1-c1ccc(CNC(=O)[C@@H]2C[C@@H](O)CN2C(=O)[C@@H](NC(=O)C(F)(F)OCCCCCCOc2cc(F)c([C@@H]3c4[nH]c5ccccc5c4C[C@@H](C)N3CC(C)(C)F)c(F)c2)C(C)(C)C)cc1 ... 9.00

Q: Look at this compound and give its reported pIC50. Cc1ncsc1-c1ccc(CNC(=O)[C@@H]2C[C@@H](O)CN2C(=O)[C@@H](NC(=O)COCCOCCOCCOc2cc(F)c([C@@H]3c4[nH]c5ccccc5c4C[C@@H](C)N3CC3(F)CC3)c(F)c2)C(C)(C)C)cc1
Ans: 8.59

###

Quick reference for IC50 among some molecules
Molecular target: recombinant human Estrogen Receptor alpha ligand binding domain, residues 307-554 (ER alpha-LBD (GST)) (Homo sapiens, UniProt P03372)
Assay: ERα binding assay (LanthaScreen TR-FRET competition)
Conditions: TR-FRET competition with Fluormone ES2 tracer, 4 hours at room temperature; single experiment or average of two or more
Just the number please, in pM, no unit attached.

Q: # IC50 lookup, item Cc1ncsc1-c1ccc(CNC(=O)[C@@H]2C[C@@H](O)CN2C(=O)[C@@H](NC(=O)COCCCc2cccc(COc3cc(F)c([C@@H]4c5[nH]c6ccccc6c5C[C@@H](C)N4CC(C)(C)F)c(F)c3)c2)C(C)(C)C)cc1 [Example 73]
Ans: 1000

Q: Fill in the blank: the reported IC50 of Cc1ncsc1-c1ccc(CNC(=O)[C@@H]2C[C@@H](O)CN2C(=O)[C@@H](NC(=O)CNCCC(F)(F)CCOc2cc(F)c([C@@H]3c4[nH]c5ccccc5c4C[C@@H](C)N3CC(C)(C)F)c(F)c2)C(C)(C)C)cc1 [Example 131] is ____.
Ans: 1600

Q: Request the reported IC50 associated with Cc1ncsc1-c1ccc(CNC(=O)[C@@H]2C[C@@H](O)CN2C(=O)[C@@H](NC(=O)CCCCNC(=O)/C=C/c2cc(F)c([C@@H]3c4[nH]c5ccccc5c4C[C@@H](C)N3CC(C)(C)F)c(F)c2)C(C)(C)C)cc1 [Example 60, Trifluoroacetic Acid]
Ans: 700

###

Target: recombinant human Estrogen Receptor alpha ligand binding domain, residues 307-554 (ER alpha-LBD (GST)) (Homo sapiens)
Sequence (P03372 307-554): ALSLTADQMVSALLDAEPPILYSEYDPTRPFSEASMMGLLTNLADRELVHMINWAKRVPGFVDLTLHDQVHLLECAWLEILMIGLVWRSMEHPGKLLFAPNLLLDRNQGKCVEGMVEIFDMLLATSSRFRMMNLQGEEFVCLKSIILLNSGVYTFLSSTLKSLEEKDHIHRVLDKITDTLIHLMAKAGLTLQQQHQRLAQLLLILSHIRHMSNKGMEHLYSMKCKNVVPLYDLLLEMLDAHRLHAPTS
Assay: ERα binding assay (LanthaScreen TR-FRET competition)
Details: TR-FRET competition with Fluormone ES2 tracer, 4 hours at room temperature; single experiment or average of two or more
value-kind: pIC50
// returns pIC50 (minus log10 of molar concentration), number only

1) Cc1ncsc1-c1ccc(CNC(=O)[C@@H]2C[C@@H](O)CN2C(=O)[C@@H](NC(=O)COCCOCCOCCOc2cc(F)c([C@@H]3c4[nH]c5ccccc5c4C[C@@H](C)N3C[C@H](C)C(=O)O)c(F)c2)C(C)(C)C)cc1 ... 8.39
2) Cc1ncsc1-c1ccc(CNC(=O)[C@@H]2C[C@@H](O)CN2C(=O)[C@@H](NC(=O)CCCc2ccc(COc3cc(F)c([C@@H]4c5[nH]c6ccccc6c5C[C@@H](C)N4CC(C)(C)F)c(F)c3)nc2)C(C)(C)C)cc1 ... 8.92
3) Cc1ncsc1-c1ccc(CNC(=O)[C@@H]2C[C@@H](O)CN2C(=O)[C@@H](NC(=O)COCCCCCCCCOc2cc(F)c([C@@H]3c4[nH]c5ccccc5c4C[C@@H](C)N3CC(C)(C)F)c(F)c2)C(C)(C)C)cc1 ... 8.80

Proceeding to the next compound to report its pIC50.
Q: Fill in: pIC50 of Cc1ncsc1-c1ccc(CNC(=O)[C@@H]2C[C@@H](O)CN2C(=O)[C@@H](NC(=O)COCc2ccnc(COc3cc(F)c([C@@H]4c5[nH]c6ccccc6c5C[C@@H](C)N4CC(C)(C)F)c(F)c3)c2)C(C)(C)C)cc1 is ___
Ans: 9.22

###

IC50 overview
Target: recombinant human Estrogen Receptor alpha ligand binding domain, residues 307-554 (ER alpha-LBD (GST)) (Homo sapiens, UniProt P03372)
Sequence (P03372 307-554): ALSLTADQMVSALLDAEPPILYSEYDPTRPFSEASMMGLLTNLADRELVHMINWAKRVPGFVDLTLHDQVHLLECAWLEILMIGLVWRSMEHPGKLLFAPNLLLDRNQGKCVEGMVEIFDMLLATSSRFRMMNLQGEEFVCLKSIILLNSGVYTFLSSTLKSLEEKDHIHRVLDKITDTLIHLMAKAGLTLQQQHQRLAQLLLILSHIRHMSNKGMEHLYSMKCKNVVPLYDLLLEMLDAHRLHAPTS
Test: ERα binding assay (LanthaScreen TR-FRET competition)
Conditions: TR-FRET competition with Fluormone ES2 tracer, 4 hours at room temperature; single experiment or average of two or more

1) Cc1ncsc1-c1ccc(CNC(=O)[C@@H]2C[C@@H](O)CN2C(=O)[C@@H](NC(=O)COCCCCCNCCOc2cc(F)c([C@@H]3c4[nH]c5ccccc5c4C[C@@H](C)N3CC(C)(C)F)c(F)c2)C(C)(C)C)cc1 ... 1 nM

Could you now look at the following compound, please?
Q: Can you share its IC50? I mean this compound: Cc1ncsc1-c1ccc(CNC(=O)[C@@H]2C[C@@H](O)CN2C(=O)[C@@H](NC(=O)COCCNC(=O)/C=C/c2cc(F)c([C@@H]3c4[nH]c5ccccc5c4C[C@@H](C)N3CC(C)(C)F)c(F)c2)C(C)(C)C)cc1
Ans: 0.5 nM
